// data source = patent US20080312271A1

- assayed_system: mGluR2 receptor (metabotropic glutamate receptor 2) (Homo sapiens, UniProt Q14416)
- Construct: expressed in transfected cells
- Sequence (Q14416 19-872, species assumed): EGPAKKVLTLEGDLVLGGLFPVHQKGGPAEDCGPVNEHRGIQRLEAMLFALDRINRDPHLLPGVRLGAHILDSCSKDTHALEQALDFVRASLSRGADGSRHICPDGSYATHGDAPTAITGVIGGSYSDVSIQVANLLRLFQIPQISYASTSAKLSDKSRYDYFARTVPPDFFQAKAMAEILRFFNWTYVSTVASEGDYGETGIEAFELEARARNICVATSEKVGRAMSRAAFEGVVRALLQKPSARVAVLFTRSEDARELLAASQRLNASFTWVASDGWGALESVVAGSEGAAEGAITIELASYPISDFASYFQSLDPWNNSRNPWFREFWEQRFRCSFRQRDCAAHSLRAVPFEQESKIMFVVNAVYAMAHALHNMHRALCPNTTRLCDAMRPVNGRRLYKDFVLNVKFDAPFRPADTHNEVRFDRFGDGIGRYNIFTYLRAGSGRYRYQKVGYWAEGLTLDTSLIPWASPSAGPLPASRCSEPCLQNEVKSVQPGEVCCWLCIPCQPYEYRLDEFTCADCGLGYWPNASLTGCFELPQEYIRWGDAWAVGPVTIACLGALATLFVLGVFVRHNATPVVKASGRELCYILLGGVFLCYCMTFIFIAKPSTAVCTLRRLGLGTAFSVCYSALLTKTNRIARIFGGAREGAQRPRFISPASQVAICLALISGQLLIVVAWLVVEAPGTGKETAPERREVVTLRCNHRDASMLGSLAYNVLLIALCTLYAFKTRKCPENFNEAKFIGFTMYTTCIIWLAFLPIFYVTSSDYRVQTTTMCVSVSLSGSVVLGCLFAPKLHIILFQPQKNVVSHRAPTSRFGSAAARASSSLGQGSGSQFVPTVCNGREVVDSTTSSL
- assay_overview: mGluR2 Potentiator Screen, FLIPR, EC10-EC20 glutamate challenge
- Type: cell-based
measure_name: EC50 (nM)
Please respond with the number in nM and leave the unit unwritten.

molecule | EC50 (nM)
Cc1ccc(C)c(C2CCN(Cc3nc4ncccc4n3C)CC2)c1 | 290
Cc1cc(F)ccc1[C@H]1CCN(Cc2nc3ncccc3n2C)C[C@H]1C (relative stereo) | 88.6
C[C@@H]1CN(Cc2nc3cnccc3n2C)CC[C@@H]1c1ccc(OC(F)(F)F)cc1F (single isomer, unassigned) [compound 196] | 56

Lookup: Look up EC50 of COc1cc(F)ccc1[C@H]1CCN(Cc2nc3cnccc3n2C)C[C@H]1C (relative stereo) and report it.
Found: 53.7

Lookup: Give the value of EC50 reported for the following: C[C@@H]1CN(Cc2nc3ncccc3n2C)CC[C@@H]1c1ccc(Cl)cc1Cl (single isomer, unassigned) [compound 185]
Found: 64.2

Lookup: Output measured EC50 for this item: `Cn1c(CN2CCC(c3ccc(Cl)c(F)c3)CC2)nc2ncccc21`
Found: 190
